Test system: Enterovirus
assay name: Antiviral activity against Rhinovirus 30 infected in human KB cells assessed as inhibition of virus-induced cytopathic effect after 72 hrs by microscopic analysis relative to control
Assay type: functional, organism-based
Active and inactive are the calls of the source. The calls are words filed in the database; no cut-off is given here.
Possible outcomes: y for active, n for inactive

1. Nc1nc(=O)n2ccn([C@@H]3O[C@H](COP(=O)(O)O)[C@@H](O)[C@H]3O)c2n1 n
2. NC(=O)c1ncn([C@@H]2O[C@H](CO)[C@@H](O)[C@H]2O)n1 y
3. Nc1nc(=O)n2ccn([C@@H]3O[C@H](CO)[C@@H](O)[C@H]3O)c2n1 n
4. Nc1nc(=O)n2cc[nH]c2n1 y

====

Tested on: Enterovirus
assay name: Antiviral activity against Rhinovirus 8 infected in human KB cells assessed as inhibition of virus-induced cytopathic effect after 72 hrs by microscopic analysis relative to control
Assay type: functional, organism-based
The source made the active and inactive calls. The rule behind the calls is not given here.
metric name: inhibition

1) Nc1nc(=O)n2ccn([C@@H]3O[C@H](COP(=O)(O)O)[C@@H](O)[C@H]3O)c2n1 inactive
2) NC(=O)c1ncn([C@@H]2O[C@H](CO)[C@@H](O)[C@H]2O)n1 Active
3) Nc1nc(=O)n2cc[nH]c2n1 Active
4) Nc1nc(=O)n2ccn([C@@H]3O[C@H](CO)[C@@H](O)[C@H]3O)c2n1 inactive

====

System: Enterovirus
assay name: Antiviral activity against Rhinovirus 13 infected in human KB cells assessed as inhibition of virus-induced cytopathic effect after 72 hrs by microscopic analysis relative to control
Assay type: functional, organism-based
Activity calls are given as the source filed them. No cut-off for these calls is given here.
Possible outcomes: active, inactive

1) NC(=O)c1ncn([C@@H]2O[C@H](CO)[C@@H](O)[C@H]2O)n1 active
2) Nc1nc(=O)n2ccn([C@@H]3O[C@H](COC(=O)c4ccccc4)[C@@H](OC(=O)c4ccccc4)[C@H]3OC(=O)c3ccccc3)c2n1 inactive
3) O=c1nc2n([C@@H]3O[C@H](CO)[C@@H](O)[C@H]3O)ccn2c(=O)[nH]1 inactive
4) O=c1[nH]c(=O)n2ccnc2[nH]1 inactive
5) Nc1nc(=O)n2ccn([C@@H]3O[C@H](COP(=O)(O)O)[C@@H](O)[C@H]3O)c2n1 inactive
6) Nc1nc(=O)n2ccn([C@@H]3O[C@H](CO)[C@@H](O)[C@H]3O)c2n1 inactive
7) Nc1nc(=O)n2cc[nH]c2n1 active
